The measurements presented in this section are drawn from the METLIN SMRT retention time set (Domingo-Almenara et al. 2019).

assay: gradient 5% acetonitrile 3 min, to 50% in 2 min, to 85% in 15 min, held 3 min, 100 µL/min; conditions: column: Zorbax Extend-C18 2.1 x 50 mm; eluents: water / acetonitrile, 0.1% formic acid
In plain terms, low RP-LC retention time, meaning strictly below 800 s, gives Yes, and everything else gives No.

{"MOLECULE": "COC[C@@H]1CN(Cc2ccccn2)C[C@H]1c1nc(C2CC2)no1", "LABEL CLASS": "Yes"}
{"MOLECULE": "CCOc1ccc(NC(=O)Cn2cnc3nc(N4CCCC(C(=O)NC)C4)sc3c2=O)cc1 (stereo not given)", "LABEL CLASS": "Yes"}
{"MOLECULE": "O=[N+]([O-])c1ccccc1S(=O)(=O)N1CCc2ccccc21", "LABEL CLASS": "No"}
{"MOLECULE": "CN1C(=O)c2cc(C(=O)N3CCN(c4ccccc4F)CC3)nn2CC1(C)C(=O)NC1CCCCC1 (stereo not given)", "LABEL CLASS": "No"}
{"MOLECULE": "CN1C(=O)c2cc(C(=O)NCc3ccccc3Cl)nn2CC1(C)C(=O)NC1CCCCC1 (stereo not given)", "LABEL CLASS": "No"}
{"MOLECULE": "CCCCNC(=O)c1c(OCC(C)C)cc(=O)n2c1CCCCC2", "LABEL CLASS": "Yes"}
{"MOLECULE": "Cc1noc(C2(NC(=O)C3COc4ccccc4O3)CCCCC2)n1 (stereo not given)", "LABEL CLASS": "No"}
{"MOLECULE": "CCCN(CCC)c1ncc(NC(=O)c2ccc(Br)cc2)cc1C(=O)O", "LABEL CLASS": "Yes"}
{"MOLECULE": "CCCCCNC(=O)c1ccc2nc(CCc3ccc(NC(=O)C(C)C)cc3)[nH]c2c1", "LABEL CLASS": "Yes"}
{"MOLECULE": "Cc1ccc(NC(=O)c2sc(-c3cn(C)c4ncccc34)nc2C)cc1F", "LABEL CLASS": "No"}

* * *

test: gradient 5% acetonitrile 3 min, to 50% in 2 min, to 85% in 15 min, held 3 min, 100 µL/min; details: column: Zorbax Extend-C18 2.1 x 50 mm; eluents: water / acetonitrile, 0.1% formic acid

{"COMPOUND": "Cc1nc(-c2ccccc2)sc1C(=O)NC1CC1", "RP-LC retention time": "799 s"}
{"COMPOUND": "Cc1oc(-c2ccc(OC(C)C)cc2)nc1CSc1nc2ncccc2o1", "RP-LC retention time": "1100 s"}
{"COMPOUND": "COc1ccccc1CNC(=O)Cn1cc(C(=O)N2CCCC2)c(=O)c2ccc(C)nc21", "RP-LC retention time": "681 s"}
{"COMPOUND": "CCn1c(=O)sc2cc(S(=O)(=O)N3CCC(C(=O)Nc4cccc(SC)c4)CC3)ccc21", "RP-LC retention time": "975 s"}
{"COMPOUND": "NC(=O)c1oc2ccccc2c1NC(=O)C1=COCCO1", "RP-LC retention time": "672 s"}
{"COMPOUND": "O=C(NC1CCN(c2cc(-c3ccc(F)cc3)[nH]n2)C1)c1ccc(F)cc1F (stereo not given)", "RP-LC retention time": "736 s"}
{"COMPOUND": "CCN1C(=O)c2cccnc2Sc2cc(C(=O)NCc3ccc(F)cc3)ccc21", "RP-LC retention time": "805 s"}
{"COMPOUND": "COC(=O)c1ccc2c(=O)n(CCc3ccccc3)c(N3CCC(C)CC3)nc2c1", "RP-LC retention time": "1380 s"}
{"COMPOUND": "CCCc1noc(-c2ccc(-n3ncc(C(=O)N4CCCC(C)C4)c3C)nc2)n1 (stereo not given)", "RP-LC retention time": "1130 s"}
{"COMPOUND": "COC(=O)c1ccc(NC(=O)CSc2nnc(CN3CCOCC3)o2)cc1", "RP-LC retention time": "576 s"}
{"COMPOUND": "COc1ccccc1NC(=O)Nc1cc(C(C)C)ccc1C", "RP-LC retention time": "1160 s"}
{"COMPOUND": "CSc1ccc(NC(=O)N2CCC(c3nc(C(=O)N4CCCCC4)c(C)o3)CC2)cc1", "RP-LC retention time": "840 s"}
{"COMPOUND": "COc1cccc(-c2csc(-c3nnn(-c4cccc(OC)c4)c3N)n2)c1", "RP-LC retention time": "1110 s"}
{"COMPOUND": "Cc1cc(-c2nnc(C3CCC3)o2)c(C)n1CC(=O)NCc1cccc(Cl)c1", "RP-LC retention time": "897 s"}
{"COMPOUND": "Cc1ccccc1-c1cc(C(N)=O)c2ccccc2n1", "RP-LC retention time": "718 s"}
{"COMPOUND": "CC(=O)NCc1csc(C2CCN(C(=O)c3cc(F)ccc3F)CC2)n1", "RP-LC retention time": "652 s"}
{"COMPOUND": "Cc1cccc(Sc2nccnc2N2CCCC(C(=O)NC(C)c3ccccc3)C2)c1 (stereo not given)", "RP-LC retention time": "1150 s"}
{"COMPOUND": "CN1c2cc(C(=O)NCc3ccc(OC(F)(F)F)cc3)ccc2C(=O)N2CCCCC21 (stereo not given)", "RP-LC retention time": "932 s"}
{"COMPOUND": "O=C(c1ccc(CS(=O)(=O)c2ccc(Br)cc2)o1)N1CCN(c2ccccn2)CC1", "RP-LC retention time": "616 s"}
{"COMPOUND": "CCOc1ccc(CN(CC)Cc2cc(=O)n3cc(Cl)ccc3n2)cc1", "RP-LC retention time": "654 s"}
